Reported TGI values follow for various compounds
system: SF-268 CNS; experiment: NCI tumour cell line growth inhibition, 48 h
readout.type: TGI

>  <compound>
CN1CN(c2ccccc2)C2(CCN(CCCC(=O)c3cccs3)CC2)C1=O

>  <endpoint.result>
> 100 µM

$$$$
>  <compound>
CCN1C(=O)N(CC)C2C1NN=c1s/c(=C3\C(=O)N(C)c4ccccc43)c(=O)n12 (stereo not given)

>  <endpoint.result>
> 100 µM

$$$$
>  <compound>
COc1ccc(NCC(=O)Nn2c(C)nc3ccc(S(=O)(=O)Nc4ccc(OC)cc4)cc3c2=O)cc1

>  <endpoint.result>
> 100 µM

$$$$
>  <compound>
CN(C)c1ccc(/C=C/c2cc[n+](C)c3ccccc23)cc1

>  <endpoint.result>
21.5 µM

$$$$
>  <compound>
O=C(CC(C(=O)c1ccsc1)c1ccccc1)c1cccs1 (stereo not given)

>  <endpoint.result>
> 100 µM

$$$$

###

test system: HOP-62 NSCLC; test: NCI tumour cell line growth inhibition, 48 h

>  <compound>
CCc1c2c(nc3cccc(N)c13)-c1cc3c(c(=O)n1C2)COC(=O)[C@]3(O)CC

>  <cmp>
=

>  <TGI / µM>
4.29

$$$$
>  <compound>
CCOC(=O)C1(Cc2c[nH]c3ccccc23)C(O)CCCN1C(C)=O (stereo not given)

>  <cmp>
>

>  <TGI / µM>
100

$$$$
>  <compound>
CCCCC[C@H]1C/C=C2/C(=O)C(Cl)=C[C@@H]2C/C=C\CCCC(=O)O[C@@H](CCCCC)C/C=C2/C(=O)C(Cl)=C[C@@H]2C/C=C\CCCC(=O)O1

>  <cmp>
=

>  <TGI / µM>
1.01

$$$$
>  <compound>
CCOC(=O)CN1CCSC1=NC#N

>  <cmp>
>

>  <TGI / µM>
100

$$$$
>  <compound>
Nc1nc(OCc2ccccc2)nc2[nH]ncc12

>  <cmp>
=

>  <TGI / µM>
37.8

$$$$

###

Reported TGI values follow for various compounds
system: LOX IMVI melanoma; assay: NCI tumour cell line growth inhibition, 48 h
readout.type: TGI (µM)

>  <compound>
O=C1CCc2cc3c(cc21)CC1(Cc2ccccc2C1)C3

>  <readout.type>
TGI

>  <cmp>
>

>  <endpoint.result>
100

$$$$
>  <compound>
CN(C)CCNC(=O)c1ccc(Cl)c2c(Nc3ccc(S(N)(=O)=O)cc3)c3ccccc3nc12

>  <readout.type>
TGI

>  <cmp>
=

>  <endpoint.result>
2.35

$$$$
>  <compound>
CC(=O)C1=C([O-])C(C)OC1=O.CC(=O)C1=C([O-])C(C)OC1=O.[NH-]C1CCCC[C@H]1[NH-].[Pt+4] (stereo not given)

>  <readout.type>
TGI

>  <cmp>
>

>  <endpoint.result>
100

$$$$
>  <compound>
Cc1ccc(-n2cnc3c(N/N=C4\SCC(=O)N4c4ccccc4)ncnc32)cc1

>  <readout.type>
TGI

>  <cmp>
=

>  <endpoint.result>
10.3

$$$$
>  <compound>
CN(N)/N=N/c1nc[nH]c1C(N)=O

>  <readout.type>
TGI

>  <cmp>
>

>  <endpoint.result>
100

$$$$

###

Reported TGI values follow for various molecules
system: UO-31 renal; assay: NCI tumour cell line growth inhibition, 48 h
readout.type: TGI

>  <molecule>
C=C[C@]1(C)C=C2C(=O)[C@@]3(O)OC[C@@]4(CCCC(C)(C)C43O)C2(O)C(O)C1 (some centres not stated)

>  <endpoint.result>
3 µM

$$$$
>  <molecule>
COc1ccc2cc3n(c2c1)CCc1cc(OC)c(OC)cc1-3

>  <endpoint.result>
> 100 µM

$$$$
>  <molecule>
Cc1c(C)c2ccc(OC/C=C3\CCC(=O)O3)cc2oc1=O

>  <endpoint.result>
22.4 µM

$$$$
>  <molecule>
O=[N+]([O-])c1ccc(CS(=O)Cc2ccccc2)cc1 (configuration not stated)

>  <endpoint.result>
> 100 µM

$$$$
>  <molecule>
CC(CCCOC(c1ccccc1)(c1ccccc1)c1ccccc1)OC(=O)Nc1cc([N+](=O)[O-])cc([N+](=O)[O-])c1 (configuration not stated)

>  <endpoint.result>
> 100 µM

$$$$
>  <molecule>
COC(=O)C(=O)C(C(=O)C=C(C)C)C(=O)C(=O)Nc1cccc(C(C)=O)c1 (configuration not stated)

>  <endpoint.result>
> 100 µM

$$$$
>  <molecule>
O=C1C(N=Nc2ccc(-c3nc4ccccc4o3)cc2)NC(=S)N1c1ccccc1 (configuration not stated)

>  <endpoint.result>
> 100 µM

$$$$

###

system: SR leukemia; assay: NCI tumour cell line growth inhibition, 48 h
readout.type: TGI

>  <molecule>
CCC1=CC2CC(C(=O)OC)C1(N(C)C)C2=O (stereo unspecified)

>  <tgt>
SR leukemia

>  <endpoint.result>
> 100 µM

$$$$
>  <molecule>
O=[N+]([O-])/C(C(Cl)=C(Cl)Cl)=C1/OCCS1

>  <tgt>
SR leukemia

>  <endpoint.result>
71.5 µM

$$$$
>  <molecule>
CC(=O)c1cccc(NCn2nnc3ccccc32)c1

>  <tgt>
SR leukemia

>  <endpoint.result>
> 100 µM

$$$$
>  <molecule>
O=[N+]([O-])c1ccc(N=NN2CCCC2)cc1

>  <tgt>
SR leukemia

>  <endpoint.result>
> 100 µM

$$$$
>  <molecule>
FC(F)(F)c1ccc2nc(Nc3ccc(Cl)c(Cl)c3)c(-c3ccccc3)nc2c1

>  <tgt>
SR leukemia

>  <endpoint.result>
> 100 µM

$$$$
>  <molecule>
COC(=O)C(Cc1nc2ccc(Cl)cc2[nH]c1=O)C(=O)C(=O)Nc1ccccc1[N+](=O)[O-] (stereo unspecified)

>  <tgt>
SR leukemia

>  <endpoint.result>
> 100 µM

$$$$

###

tested on: UACC-257 melanoma; assay: NCI tumour cell line growth inhibition, 48 h

>  <molecule>
CCc1c[nH]c2ncnc(N3CC[C@@](N)(CNC(=O)c4ccc(F)cc4F)C3)c12

>  <GI50>
34.5 µM

$$$$
>  <molecule>
COc1cc2cc(Oc3ccc(NC(=O)c4ccc(Cl)c(C(F)(F)F)c4)cc3)c(C)nc2cc1OC

>  <GI50>
18.2 µM

$$$$
>  <molecule>
Oc1cc(Cl)ccc1Oc1ccc(Cl)cc1Cl

>  <GI50>
2.28 µM

$$$$
>  <molecule>
Cc1cc(N2CCCC2)nc(N(CCCNc2ccnc3cc(Cl)ccc23)Cc2ccc3c(c2)OCO3)n1

>  <GI50>
1.84 µM

$$$$
>  <molecule>
COc1cc(/C=C(/c2ccccc2)[N+](=O)[O-])c(OC)c2c1OCO2

>  <GI50>
1.58 µM

$$$$
>  <molecule>
Cn1cc(-c2ccc(CNc3cc(-c4cnc5cc(OCCCN6CCCC6)ccn45)ncn3)cc2)cn1

>  <GI50>
2.23 µM

$$$$
>  <molecule>
CC1=CC(=O)C(C(C)=Nc2ccccc2Cl)C(=O)O1 (stereo not drawn)

>  <GI50>
> 100 µM

$$$$
>  <molecule>
Clc1ccc2nc(Oc3ccccc3)cnc2c1

>  <GI50>
> 100 µM

$$$$
>  <molecule>
C[C@H](CS(C)(=O)=O)Nc1ncc2cc(Oc3ccc(F)cc3F)c(=O)n(C)c2n1

>  <GI50>
> 25 µM

$$$$
>  <molecule>
Fc1ccc(Nc2nccc(-c3c(-c4ccc(C(F)(F)F)cc4)nn4ncccc34)n2)cc1F

>  <GI50>
> 25 µM

$$$$
>  <molecule>
COc1cnc2c(c1)C(=O)c1c-2n(CCCN2CCCC2)c(=O)c2cc(Cl)ccc12

>  <GI50>
7.85 µM

$$$$
>  <molecule>
COc1ccc2c(c1)C(=O)c1c-2n(CCCN2CCOCC2)c(=O)c2ccccc12

>  <GI50>
4.46 µM

$$$$
>  <molecule>
CCOC(=O)c1c(C)n(Cc2ccc(Cl)cc2Cl)c2c1cc1oc(=O)c(=O)n3c(Cc4ccccc4)nc2c13

>  <GI50>
17.3 µM

$$$$

###

test system: SK-MEL-5 melanoma; experiment: NCI tumour cell line growth inhibition, 48 h; in the data active = GI50 below about 0.43 µM; inactive = the rest
Outcomes: true for active, false for inactive

>  <compound>
CC[CH2][Pb]([CH2]CC)([CH2]CC)[NH]S(=O)(=O)c1ccc(C)cc1

>  <class.assignment>
true

$$$$
>  <compound>
Fc1ccc(Nc2nc(NCCNc3ccnc4cc(Cl)ccc34)nc(N3CCOCC3)n2)cc1

>  <class.assignment>
false

$$$$
>  <compound>
NCc1ccc(-n2c(-c3nonc3N)nc3cnccc32)cc1

>  <class.assignment>
false

$$$$
>  <compound>
CCOC(=O)N1CCN(S(=O)(=O)c2oc(-c3ccc(Cl)cc3)nc2C#N)CC1

>  <class.assignment>
false

$$$$
>  <compound>
Clc1ccc2nc(Oc3ccccc3)cnc2c1

>  <class.assignment>
false

$$$$
>  <compound>
COc1ccc(/C=C2\CCCC3=C2NC(C)=NC3c2ccc(OC)c(OC)c2)cc1OC (stereo unspecified)

>  <class.assignment>
false

$$$$
>  <compound>
Cc1ccc2c(c1)ncn2-c1ncnc2c1CC(C)c1ccccc1N2C (stereo unspecified)

>  <class.assignment>
true

$$$$
>  <compound>
COc1ccc2c(c1)C(=O)c1c-2n(CCCN2CCOCC2)c(=O)c2ccccc12

>  <class.assignment>
false

$$$$
>  <compound>
CC1=CC(=O)C(C(C)=Nc2ccccc2Cl)C(=O)O1 (stereo unspecified)

>  <class.assignment>
false

$$$$
>  <compound>
CN(C)c1ccc(N=Nc2c([O-])ccc3ccccc23)cc1.[C-]#[O+].[C-]#[O+].[Ir]

>  <class.assignment>
false

$$$$
>  <compound>
CS(=O)(=O)Nc1cc(-c2ccc3ncnc(Nc4ccc5c(cnn5Cc5ccc(F)cc5)c4)c3c2)cnc1Cl

>  <class.assignment>
false

$$$$
